Rule: logP under 2 gives Not met, otherwise Met.

// query Does CNC(=O)C(C(=O)O)=C1SC(C(=O)NC2(OC)C(=O)N3C(C(=O)O)=C(CSc4nnnn4C)CSC32)S1 (stereo unspecified) have a reported logP of at least 2?
// result Not met

// query Decide: is the reported value of logP for COC1(NC(=O)C2SC(=C(C(=O)O)S(N)(=O)=O)S2)C(=O)N2C(C(=O)O)=C(CSc3nnnn3C)CSC21 (stereo unspecified) equal to or greater than 2?
// result Not met

// query Identify whether the reported logP of the following compound is 2 or greater: COC1(NC(=O)C2SC(=C(C)C(=O)O)S2)C(=O)N2C(C(=O)O)=C(CSC3=NN=NN(C)C3)CSC21 (stereo unspecified)
// result Met

// query Threshold query (logP >= 2) on CCSC(C(=O)O)=C1SC(C(=O)NC2(OC)C(=O)N3C(C(=O)O)=C(CSc4nnnn4C)CSC32)S1 (stereo unspecified)
// result Met

// query logP >= 2 for COC1(NC(=O)C2SC(=C(C#N)C(=O)O)S2)C(=O)N2C(C(=O)O)=C(CSc3nnnn3C)CSC21 (stereo unspecified) ?
// result Not met

// query Hi team, for COC1(NC(=O)C2SC(C(C(=O)O)C(=O)c3ccccc3)S2)C(=O)N2C(C(=O)O)=C(CSc3nnnn3C)CSC21 (stereo unspecified) , is the recorded logP at or above 2?
// result Met

// query # check: logP of COC1(NC(=O)C2SC(=CC(=O)O)S2)C(=O)N2C(C(=O)O)=C(CSc3nnnn3C)CSC21 (stereo unspecified) is greater than or equal to 2
// result Met

// query Determine whether measured logP meets or exceeds 2 for COC1(NC(=O)CSc2snc(O)c2C(=O)O)C(=O)N2C(C(=O)O)=C(CSc3nnnn3C)CSC21 (stereo unspecified)
// result Not met

// query Hi, just wondering whether COC1(NC(=O)C2SC(=C(SC)C(=O)O)S2)C(=O)N2C(C(=O)O)=C(CSc3nnnn3C)CSC21 (stereo unspecified) shows logP of 2 or higher.
// result Met

Each recorded value in this set is attributed to the SangsterLogP compilation.
